Biological target: UniProtKB P30518
Sequence (P30518 whole entry): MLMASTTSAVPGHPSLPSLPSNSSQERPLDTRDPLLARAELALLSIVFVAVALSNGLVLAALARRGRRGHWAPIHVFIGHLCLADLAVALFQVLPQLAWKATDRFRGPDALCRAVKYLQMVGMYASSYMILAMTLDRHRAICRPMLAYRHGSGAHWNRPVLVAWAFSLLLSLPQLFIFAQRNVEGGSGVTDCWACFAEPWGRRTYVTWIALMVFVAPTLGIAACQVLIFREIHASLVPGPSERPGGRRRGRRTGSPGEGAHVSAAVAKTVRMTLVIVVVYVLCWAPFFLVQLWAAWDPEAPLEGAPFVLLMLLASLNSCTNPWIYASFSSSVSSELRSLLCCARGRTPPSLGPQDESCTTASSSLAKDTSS
Test: V2 binding assay (3H-AVP displacement, HEK-293 membranes)
Set-up: expressed in transfected cells; host or cells: HEK-293 (membranes)
Conditions: 1.0 μM compound; read-out: V2@1.0, % Inh
Structures can show the parent of a compound that is named as a salt.
endpoint label: inhibition at 1 µM (%)

Previously resolved entries follow.
>>> val("O=c1n(CCCN2CCCCC2)c2ccccc2n1C1CCN(C(=S)NC(c2ccccc2)(c2ccccc2)c2ccccc2)CC1")
0
>>> val("COc1ccc(C(NC(=S)N2CCC(n3c(=O)n(CCCN)c4ccccc43)CC2)c2ccc(OC)cc2)cc1 [Compound 68, Hydrochloride]")
0
>>> val("CN(C)CCCn1c(=O)n(C2CCN(C(=S)NC(c3ccccc3)c3ccccc3)CC2)c2ccccc21")
0
>>> val("CSC(=O)NC(=N)N1CCC(n2c(=O)n(CCCN3CCCCC3)c3ccccc32)CC1")
19
>>> val("COc1ccc(C(NC(=S)N2CCC(n3c(=O)[nH]c4ccccc43)CC2)c2ccc(OC)cc2)cc1")
0

(A) CC(C)c1ccccc1NC(=O)N1CCC(n2c(=O)n(CCCN3CCCCC3)c3ccccc32)CC1
(B) O=c1[nH]c2ccccc2n1C1CCN(C(=S)NC(Cc2ccccc2)c2ccccc2)CC1 (stereo not shown)
// returns A or B , whichever has the lower inhibition at 1 µM Return value: the label identifying the chosen record.
A
(A: 0%, B: 9%)
